- TESTED TARGET: unphosphorylated-BTK kinase domain (UP-BTK), GST-tagged human BTK (389-659aa) (Homo sapiens (Human))
- PROTOCOL SUMMARY: BTK Kinase Lanthascreen Binding Assay
- COND: compound, 50 nM Tracer 236, 2 nM anti-GST antibody, 60 minutes; pIC50 = negative log of the IC50 in molar
Form field: BTK_I_binding pIC50 (one value per entry).

{"MOLECULE": "CC(=O)N[C@H]1CCC[C@H]1NC(=O)c1sc2nccc3c2c1NC(=O)N3c1ccc(Oc2ccccc2)cc1C (single isomer, unassigned) [Example 138]", "BTK_I_binding pIC50": 7.49}
{"MOLECULE": "CC(=O)N[C@H]1CC[C@@H](NC(=O)c2sc3nccc4c3c2NC(=O)N4c2ccc(Oc3ccccc3)cc2C)CC1 (single isomer, unassigned) [Example 95]", "BTK_I_binding pIC50": 6.14}
{"MOLECULE": "CC(=O)N[C@@H]1CCC[C@H](NC(=O)c2sc3nccc4c3c2NC(=O)N4c2ccc(Oc3ccccc3)cc2C)C1 (single isomer, unassigned) [Example 180]", "BTK_I_binding pIC50": 7.94}
{"MOLECULE": "Cc1cc(Oc2ccccc2)ccc1N1C(=O)Nc2c(C(=O)N[C@@H]3CCCC[C@H]3N)sc3nccc1c23 [Example 38]", "BTK_I_binding pIC50": 6.68}
{"MOLECULE": "C=CC(=O)N[C@@H]1CC[C@H](NC(=O)c2sc3nccc4c3c2NC(=O)N4c2ccc(Oc3ccccc3)c(Cl)c2)C1 [Example 191]", "BTK_I_binding pIC50": 7.95}
{"MOLECULE": "C=CC(=O)N[C@H]1CCCC[C@H]1NC(=O)c1sc2nccc3c2c1NC(=O)N3c1cnc(OC2CCCC2)cc1C [Example 223]", "BTK_I_binding pIC50": 7.81}

---

- TESTED TARGET: unphosphorylated-BTK kinase domain (UP-BTK), GST-tagged human BTK (389-659aa) (Homo sapiens (Human), UniProt Q06187)
- Sequence (Q06187 389-659): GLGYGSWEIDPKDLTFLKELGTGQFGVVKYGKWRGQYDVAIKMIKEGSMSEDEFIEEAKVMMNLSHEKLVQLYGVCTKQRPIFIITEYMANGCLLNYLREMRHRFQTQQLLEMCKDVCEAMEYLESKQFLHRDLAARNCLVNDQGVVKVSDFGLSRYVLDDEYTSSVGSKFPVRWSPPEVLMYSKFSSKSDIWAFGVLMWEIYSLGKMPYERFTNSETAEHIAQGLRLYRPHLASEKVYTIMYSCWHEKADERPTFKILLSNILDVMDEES
- PROTOCOL SUMMARY: BTK Kinase Lanthascreen Binding Assay
- COND: compound, 50 nM Tracer 236, 2 nM anti-GST antibody, 60 minutes; pIC50 = negative log of the IC50 in molar

{"COMPOUND": "CC(C)(C)OC(=O)N[C@@H]1CC[C@H](NC(=O)c2sc3nccc4c3c2NC(=O)N4c2ccc(Oc3ccccc3)cc2)C1", "BTK_I_binding pIC50": 6.40}
{"COMPOUND": "Cc1cc(Oc2ccccc2)ccc1N1C(=O)Nc2c(C(=O)N[C@H]3CCC[C@@H]3N)sc3nccc1c23 [Example 41]", "BTK_I_binding pIC50": 6.37}
{"COMPOUND": "C=CC(=O)N[C@H]1CCCC[C@H]1NC(=O)c1sc2nccc3c2c1NC(=O)N3c1ccc(OC(C)C)nc1C (single isomer, unassigned) [Example 209]", "BTK_I_binding pIC50": 7.31}
{"COMPOUND": "CNCC(=O)N[C@H]1CCC[C@H](NC(=O)c2sc3nccc4c3c2NC(=O)N4c2ccc(Oc3ccccc3)cc2C)C1 (relative stereo)", "BTK_I_binding pIC50": 6.75}
{"COMPOUND": "CCC(=O)N[C@H]1CCC[C@H]1NC(=O)c1sc2nccc3c2c1NC(=O)N3c1ccc(Oc2ccccc2)cc1C", "BTK_I_binding pIC50": 6.91}
{"COMPOUND": "C=CC(=O)N[C@@H]1CC[C@H](NC(=O)c2sc3nccc4c3c2NC(=O)N4c2ccc(OC(C)C)cc2C)C1 [Example 110]", "BTK_I_binding pIC50": 7.23}
{"COMPOUND": "CC(=O)N[C@H]1CCCC[C@H]1NC(=O)c1sc2nccc3c2c1NC(=O)N3c1ccc(Oc2ccccc2)cc1C (single isomer, unassigned) [Example 136]", "BTK_I_binding pIC50": 7.52}
{"COMPOUND": "C=CC(=O)N[C@@H]1CC[C@H](NC(=O)c2sc3nccc4c3c2NC(=O)N4c2ccnc(-c3ccccc3)c2)C1", "BTK_I_binding pIC50": 7.98}
{"COMPOUND": "C=CC(=O)N[C@H]1CCC[C@H]1NC(=O)c1sc2nccc3c2c1NC(=O)N3c1cccc(-c2cccnc2)c1", "BTK_I_binding pIC50": 7.90}
{"COMPOUND": "N[C@H]1CCC[C@H]1NC(=O)c1sc2nccc3c2c1NC(=O)N3c1ccc(Oc2ccccc2)cc1", "BTK_I_binding pIC50": 7.70}
{"COMPOUND": "C=CC(=O)N[C@H]1CCCC[C@H]1NC(=O)c1sc2nccc3c2c1NC(=O)N3c1ccc(OC2CCC2)nc1C (single isomer, unassigned) [Example 242]", "BTK_I_binding pIC50": 7.04}
{"COMPOUND": "CCC(=O)N[C@H]1CC[C@@H](NC(=O)c2sc3nccc4c3c2NC(=O)N4c2ccc(Oc3ccccc3)cc2C)CC1 [Example 65]", "BTK_I_binding pIC50": 7.20}
{"COMPOUND": "C=CC(=O)N[C@H]1CCC[C@H]1NC(=O)c1sc2nccc3c2c1NC(=O)N3c1cc(-c2ccccc2)ncn1", "BTK_I_binding pIC50": 8.34}

---

- TESTED TARGET: unphosphorylated-BTK kinase domain (UP-BTK), GST-tagged human BTK (389-659aa) (Homo sapiens (Human), UniProt Q06187)
- PROTOCOL SUMMARY: BTK Kinase Lanthascreen Binding Assay
- COND: Lanthascreen binding, 60 minutes incubation; pIC50 = negative log of the IC50 in molar

{"COMPOUND": "C=CC(=O)N[C@H]1CCC[C@H](NC(=O)c2sc3nccc4c3c2NC(=O)N4c2cnc(Oc3ccccc3)cc2C)C1 (single isomer, unassigned)", "BTK_I_binding pIC50": 7.78}
{"COMPOUND": "C=CC(=O)N[C@H]1CCC[C@H]1NC(=O)c1sc2nccc3c2c1NC(=O)N3c1ccc(OC2CCOCC2)cc1C (single isomer, unassigned) [Example 304]", "BTK_I_binding pIC50": 7.48}
{"COMPOUND": "C=CC(=O)N[C@H]1CCC[C@H]1NC(=O)c1sc2nccc3c2c1NC(=O)N3c1ccc(Oc2cccnn2)cc1", "BTK_I_binding pIC50": 7.16}
{"COMPOUND": "CCC(=O)N[C@H]1CCCC[C@H]1NC(=O)c1sc2nccc3c2c1NC(=O)N3c1cnc(Oc2ccccc2)cc1C (relative stereo)", "BTK_I_binding pIC50": 6.75}
{"COMPOUND": "Cc1cc(OCC(C)C)ncc1N1C(=O)Nc2c(C(=O)N[C@@H]3CCC[C@@H]3N)sc3nccc1c23 (single isomer, unassigned)", "BTK_I_binding pIC50": 6.62}
{"COMPOUND": "C=CC(=O)N[C@H]1CCC[C@H]1NC(=O)c1sc2nccc3c2c1NC(=O)N3c1ccc(Oc2cncnc2)cn1", "BTK_I_binding pIC50": 6.59}
{"COMPOUND": "Cc1nc(Oc2ccccc2)ccc1N1C(=O)Nc2c(C(=O)N[C@@H]3CCCC[C@@H]3N)sc3nccc1c23 (single isomer, unassigned)", "BTK_I_binding pIC50": 6.50}
{"COMPOUND": "CCC(=O)N[C@H]1CCCC[C@H]1NC(=O)c1sc2nccc3c2c1NC(=O)N3c1ccc(Oc2ccccc2)cc1C (single isomer, unassigned)", "BTK_I_binding pIC50": 7.20}
{"COMPOUND": "C=CC(=O)N[C@H]1CCC[C@H]1NC(=O)c1sc2nccc3c2c1NC(=O)N3c1ccc(Oc2ccc(C)nc2)cn1", "BTK_I_binding pIC50": 7.33}
{"COMPOUND": "C=CC(=O)N[C@@H]1CC[C@H](NC(=O)c2sc3nccc4c3c2NC(=O)N4c2ccc(Oc3ccccc3)cn2)C1 (single isomer, unassigned)", "BTK_I_binding pIC50": 7.83}
{"COMPOUND": "C=CC(=O)N[C@H]1CCC[C@H]1NC(=O)c1sc2nccc3c2c1NC(=O)N3c1cnc(OC(C)C)cc1C (single isomer, unassigned)", "BTK_I_binding pIC50": 8.20}
{"COMPOUND": "C=CC(=O)N[C@H]1CCC[C@@H](NC(=O)c2sc3nccc4c3c2NC(=O)N4c2cnc(Oc3ccccc3)cc2C)C1 (single isomer, unassigned)", "BTK_I_binding pIC50": 6.31}

---

Form field: BTK_I_binding pIC50 (one value per entry).
- TESTED TARGET: unphosphorylated-BTK kinase domain (UP-BTK), GST-tagged human BTK (389-659aa) (Homo sapiens (Human), UniProt Q06187)
- PROTOCOL SUMMARY: BTK Kinase Lanthascreen Binding Assay
- COND: compound, 50 nM Tracer 236, 2 nM anti-GST antibody, 60 minutes; pIC50 = negative log of the IC50 in molar

{"COMPOUND": "C=CC(=O)N[C@@H]1CCCC[C@H]1NC(=O)c1sc2nccc3c2c1NC(=O)N3c1ccc(OC(C)C)cc1C (single isomer, unassigned) [Example 264]", "BTK_I_binding pIC50": 6.26}
{"COMPOUND": "C=CC(=O)N[C@@H]1CC[C@H](NC(=O)c2sc3nccc4c3c2NC(=O)N4c2ccc(OC(C)C)cc2C)C1 (single isomer, unassigned) [Example 186]", "BTK_I_binding pIC50": 7.62}
{"COMPOUND": "C=CC(=O)N[C@@H]1CCC[C@@H](NC(=O)c2sc3nccc4c3c2NC(=O)N4c2ccc(OC(C)C)cc2C)C1 (single isomer, unassigned) [Example 215]", "BTK_I_binding pIC50": 7.13}
{"COMPOUND": "CC(=O)N[C@H]1CCC[C@H](NC(=O)c2sc3nccc4c3c2NC(=O)N4c2ccc(Oc3ccccc3)cc2C)C1 (single isomer, unassigned) [Example 243]", "BTK_I_binding pIC50": 6.85}
{"COMPOUND": "C=CC(=O)N[C@H]1CCC[C@H]1NC(=O)c1sc2nccc3c2c1NC(=O)N3c1ccc(Oc2ccccc2)nc1 [Example 178]", "BTK_I_binding pIC50": 8.28}
{"COMPOUND": "Cc1cc(Oc2ccccc2)ccc1N1C(=O)Nc2c(C(=O)N[C@H]3CCC[C@H]3N)sc3nccc1c23 [Example 53]", "BTK_I_binding pIC50": 5.95}
{"COMPOUND": "C=CC(=O)N[C@H]1CCC[C@H]1NC(=O)c1sc2nccc3c2c1NC(=O)N3c1cnc(Oc2ccccc2)nc1C (single isomer, unassigned) [Example 166]", "BTK_I_binding pIC50": 8.13}
{"COMPOUND": "Cc1cc(Oc2ccccc2)ncc1N1C(=O)Nc2c(C(=O)N[C@@H]3CCC[C@H]3N)sc3nccc1c23 (single isomer, unassigned) [Example 233]", "BTK_I_binding pIC50": 6.85}
